fold induction at 10 µM listing for selected molecules.
System: type I interferon pathway (ISG) in human THP1-Blue-ISG cells
Experiment: Activation of type I interferon pathway (ISG) in human THP1-Blue-ISG cells (Quanti-Blue, OD650)
Assay type: cell-based
Settings: Homo sapiens, THP1-Blue ISG; 10 μM, 24 h; Compound OD650/Control OD650; ≥2 times considered valid; read-out: Fold Change
Experimental: 20 μL of compound diluted with physiological saline was added to each well of a 96-well cell culture plate, the positive control compound was ADU-S100, and the solvent control group was added with 20 μL of physiological saline containing DMSO. THP1-Blue-ISG cells were counted, the cell concentration was adjusted to 5×10^5/mL, and 180 μL of cells were added to each well for incubation. […]
REPORTED_PROPERTY: fold induction at 10 µM

MOLECULE	DATA_VALUE
O=C(O)CC(=O)c1cc(-c2c[nH]c3c(F)cccc23)cs1 [Example I-3]	9.82
O=C(O)CC(=O)c1cc(-c2c[nH]c3ccc(F)cc23)cs1 [Example I-4]	9.95
COC(=O)CC(=O)c1cc(-c2c[nH]c3c(F)cccc23)cs1 [Example I-18]	9.8
COC(=O)CC(=O)c1cc(-c2c[nH]c3ccc(F)cc23)cs1 [Example I-19]	10
